Assay: Lipophilicity, logD of compound in octanol and PBS buffer at pH 7.4 incubated for 2 hrs under shaking condition by LC-MS/MS analysis
Format: physicochemical

# Chemical Structure, logD at 2 h
rows = [
    ("O=C(Nc1ccc(I)cc1C(=O)O)c1ccc(Cl)c(Cl)c1", 3.4),
]

* * *

Experiment: Inhibition of Mycobacterium tuberculosis His6-tagged MabA expressed in Escherichia coli BL21 (DE3) assessed as reduction in HBCoA formation using AcAcCoA as substrate preincubated for 30 mins followed by substrate and 100 uM NADPH addition and measured after 15 mins by LC-MS/MS analysis
Measurement Label: IC50

# Chemical Structure, Measurement Label, Result
rows = [
    ("CC(C)(C)OC(=O)Nc1ccc(Cl)cc1C(=O)O", "IC50", "> 500 µM"),
    ("COc1ccc(NC(=O)OC(C)(C)C)c(C(=O)O)c1", "IC50", "> 1000 µM"),
    ("O=C(Nc1ccc(I)cc1C(=O)O)c1ccc(Cl)c(C(F)(F)F)c1", "IC50", "59 µM"),
    ("Cc1ccc(C(=O)Nc2ccc(I)cc2C(=O)O)cc1", "IC50", "95 µM"),
    ("CC(C)COC(=O)Nc1ccc(I)cc1C(=O)O", "IC50", "310 µM"),
    ("O=C1Nc2ccc(Br)cc2C1=O", "IC50", "72 µM"),
    ("CC(C)(C)OC(=O)Nc1ccc(Br)cc1C(=O)O", "IC50", "470 µM"),
    ("O=C(CCCc1ccccc1)Nc1ccc(I)cc1C(=O)O", "IC50", "186 µM"),
]

* * *

Each entry below lists one item and its recorded IC50 value.
Assay: Inhibition of Mycobacterium tuberculosis His6-tagged MabA expressed in Escherichia coli BL21 (DE3) assessed as reduction in HBCoA formation using AcAcCoA as substrate preincubated for 30 mins followed by substrate and 100 uM NADPH addition and measured after 15 mins by LC-MS/MS analysis
Measurement Label: IC50

# Chemical Structure, Result
data = [
    ("COC(=O)c1cc(I)ccc1NC(=O)OC(C)(C)C", "> 1000 µM"),
    ("C=CCOC(=O)Nc1ccc(I)cc1C(=O)O", "> 500 µM"),
    ("CC(C)(C)OC(=O)Nc1ccccc1C(=O)O", "> 1000 µM"),
]

* * *

Each entry below lists one item and its recorded pIC50 value.
Experiment: Inhibition of Mycobacterium tuberculosis His6-tagged MabA expressed in Escherichia coli BL21 (DE3) assessed as reduction in HBCoA formation using AcAcCoA as substrate preincubated for 30 mins followed by substrate and 100 uM NADPH addition and measured after 15 mins by LC-MS/MS analysis
pIC50: −log10 of the molar value.
Measurement Label: pIC50

# Chemical Structure, Result
records = [
    ("O=C(O)c1cc(I)ccc1NC(=O)C1CC1", "< 3.30"),
    ("O=C(Nc1ccc(I)cc1C(=O)O)c1ccncc1", "< 3.40"),
    ("O=C(Cc1ccccc1)Nc1ccc(I)cc1C(=O)O", "< 3.30"),
]
